FYI, the data here is from the supplement of paper PMC4862054.

- System: HCC1599
- ASSAY_COMMENT: normalised response (% of control), CellTox Green; higher = less cell death (100 = DMSO, 0 = benzethonium chloride kill control)
- ASSAY_CONTEXT: incubation time: 72 h
READOUT_KIND: normalised response
The reply should read as a number followed by its unit.

Past entries and their recorded results:
O=P1(N(CCCl)CCCl)NCCCO1 (centres undefined) [Cyclophosphamide] (400 nM); 98.8%
N#Cc1ccc(COC[C@H]2O[C@@H](n3c(NCc4ccc(Cl)c(Cl)c4)nc4c(N)ncnc43)[C@H](O)[C@@H]2O)cc1 (10000 nM); 109%
N#Cc1ccc(COC[C@H]2O[C@@H](n3c(NCc4ccc(Cl)c(Cl)c4)nc4c(N)ncnc43)[C@H](O)[C@@H]2O)cc1 (100 nM); 115%
Cc1cc(Nc2cc(CN3CCOCC3)c3nc(C)c(Cc4ccc(Cl)cc4F)n3n2)n[nH]1 [Gandotinib] (1000 nM); 104%
COc1cc2/c(=N/c3ccc(Br)cc3F)nc[nH]c2cc1OCC1CCN(C)CC1 [Vandetanib] (100 nM); 87%

Prompt: What does the record list as normalised response for O=C(Nc1cccnc1)N1CCC(Cc2cccc(Oc3ccc(C(F)(F)F)cn3)c2)CC1 [PF-3845] (1000 nM) ?
Response: 108%

Prompt: Another compound: Cc1ccc(NC(=O)c2ccc(CN3CCN(C)CC3)cc2)cc1Nc1nc(-c2cccnc2)cs1 [Masitinib] (1000 nM)
Response: 101%

Prompt: Another compound: CNC(=O)c1cccc(-c2ccc3c(N4CCOC[C@@H]4C)nc(N4CCOC[C@@H]4C)nc3n2)c1 [AZD2014] (10000 nM)
Response: 95%

====

The reader will find reported normalised response values listed item by item below.
- Tested on: BT-474
- ASSAY_COMMENT: normalised response (% of control), CellTiter-Glo; higher = more viable cells (100 = DMSO, 0 = benzethonium chloride kill control)
- ASSAY_CONTEXT: incubation time: 72 h
Report as a plain number; the unit % is understood.

Past entries and their recorded results:
CNC(=O)c1cc(Oc2ccc(NC(=O)Nc3ccc(Cl)c(C(F)(F)F)c3)c(F)c2)ccn1 [Regorafenib] (10000 nM); 50
CN(C)c1nc(N(C)C)nc(N(C)C)n1 [Altretamine] (10000 nM); 98.7
CO[C@H]1C[C@@H]2CC[C@@H](C)[C@@](O)(O2)C(=O)C(=O)N2CCCC[C@H]2C(=O)O[C@H]([C@H](C)C[C@@H]2CC[C@@H](OP(C)(C)=O)[C@H](OC)C2)CC(=O)[C@H](C)/C=C(\C)[C@@H](O)[C@@H](OC)C(=O)[C@H](C)C[C@H](C)/C=C/C=C/C=C/1C [Ridaforolimus] (100 nM); 81.5
Cc1ccc(NC(=O)c2ccc(CN3CCN(C)CC3)cc2)cc1Nc1nc(-c2cccnc2)cs1 [Masitinib] (10000 nM); 33.2

Next compound, normalised response to be filled in.
Prompt: Give the reported normalised response for CC(C)C[C@@H](C(=O)N[C@H](C(=O)OC1CCCC1)c1ccccc1)[C@H](O)C(=O)NO [Tosedostat] (10000 nM) (system: BT-474).
Response: 24.8

====

- System: HDQ-P1
- ASSAY_COMMENT: normalised response (% of control), CellTiter-Glo; higher = more viable cells (100 = DMSO, 0 = benzethonium chloride kill control)
- ASSAY_CONTEXT: incubation time: 72 h
READOUT_KIND: normalised response (%)
Report as a plain number; the unit % is understood.

O=P1(N(CCCl)CCCl)NCCCO1 (stereo not drawn) [Cyclophosphamide] (400 nM); 99.6
NC(=O)c1ccc(I)c([N+](=O)[O-])c1 [Iniparib] (100 nM); 95
Nc1cc(C(F)(F)F)c(-c2cc(N3CCOCC3)nc(N3CCOCC3)n2)cn1 [Buparlisib] (100 nM); 95.2

Prompt: What does the record list as normalised response for CCn1c(-c2nonc2N)nc2cnc(Oc3cccc(NC(=O)c4ccc(OCCN5CCOCC5)cc4)c3)cc21 (100 nM) ?
Response: 99.6

Prompt: Another compound: CCc1c2c(nc3ccc(OC(=O)N4CCC(N5CCCCC5)CC4)cc13)-c1cc3c(c(=O)n1C2)COC(=O)[C@]3(O)CC [Irinotecan] (100 nM)
Response: 96.5

Prompt: Another compound: CNC(=O)c1cccc(-c2ccc3c(N4CCOC[C@@H]4C)nc(N4CCOC[C@@H]4C)nc3n2)c1 [AZD2014] (100 nM)
Response: 70.5

Prompt: Another compound: Cc1ccc(NC(=O)c2ccc(CN3CCN(C)CC3)cc2)cc1Nc1nc(-c2cccnc2)cs1 [Masitinib] (100 nM)
Response: 109

Prompt: Another compound: Cc1[nH]c2ccccc2c1CCNCc1ccc(/C=C/C(=O)NO)cc1 [Panobinostat] (10 nM)
Response: 93.3
